assay: protein stability index of a GFP-peptide fusion (GPS, HEK-293T) (PSI 1-6); higher = more stable; conditions: treatment: DMSO; c terminus: a fixed tail appended;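 note: 24-mer peptide tiles fused after GFP, lentivirally expressed, FACS-sorted into six equal bins by GFP/DsRed ratio, decoded by Illumina sequencing, PSI is the read-weighted mean bin number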
Please note: yes applies when protein stability index is 3 or greater, and no applies otherwise.

- SEQ STRING: "ELSEKNFQLNQDKMNFSTLRNIQG [POMP]"
  ASSIGNED CLASS: "no"
- SEQ STRING: "QQLVSFSESGSLGNSSGSDVTSLS [ISL2]"
  ASSIGNED CLASS: "yes"
- SEQ STRING: "TKVGGTNPNGGSFEEVLSSTAHAS [TPD52L1]"
  ASSIGNED CLASS: "yes"
- SEQ STRING: "SLSSIATCVYIAEIAPQHRRGLLV [SLC2A12]"
  ASSIGNED CLASS: "no"
- SEQ STRING: "EEKEAWYREESDSLGQDLRRLRQE [DAPK3]"
  ASSIGNED CLASS: "yes"

Req: # bool: protein stability index of RLRHYLGSRYDARRGVSDWDLRMK [DNAAF3] >= 3
Resp: no

Req: # bool: protein stability index of NRYGDVPCLDQTRVKLTKRSGHTQ [PTPN9] >= 3
Resp: yes

Req: # bool: protein stability index of LRLEGLLCDVTLMPGDTDDAFPVH [KLHL13] >= 3
Resp: no

Req: # bool: protein stability index of YDLWASDNPLDRPLVGQDEFFLEQ [NOP53] >= 3
Resp: yes

Req: # bool: protein stability index of LVENIIDIYKQECSSRPLQKGSHP [TRIM63] >= 3
Resp: no

Req: # bool: protein stability index of SEPIRRAGKSGTSTPTTPGSTAIT [MAP2] >= 3
Resp: yes

Req: # bool: protein stability index of IEDEDQILENSSQKENVFKCDSLK [FAN1] >= 3
Resp: yes

Req: # bool: protein stability index of TDDDGQAPEAKDGSSFSGRVFRVT [APMAP] >= 3
Resp: yes

Req: # bool: protein stability index of LPSVFGSLRDSGYFYDPIERDIEI [RSPH3] >= 3
Resp: no

Req: # bool: protein stability index of ARQLQLSDPQTVAGAFGYFQQDTK [LPCAT4] >= 3
Resp: yes

Req: # bool: protein stability index of KEDTLLLIAEVMGEDIPEKIKDEV [C8orf76] >= 3
Resp: yes

Req: # bool: protein stability index of TISFGSVSPGGVKLEISTKEVPVV [EPB41L3] >= 3
Resp: no

Req: # bool: protein stability index of RNLDGTLGYLLDKETLRLHPDIFL [ZER1] >= 3
Resp: no

Req: # bool: protein stability index of LGDLLMPTMAPAGQPAPVSMVPPS [SNAP91] >= 3
Resp: yes

Req: # bool: protein stability index of ASFCVETNNGAGFGLSILWVLLFT [SCAMP3] >= 3
Resp: no

Req: # bool: protein stability index of QAREKELLELQSQQACTHTKETEQ [CCDC89] >= 3
Resp: yes

Req: # bool: protein stability index of WILLAESNSADDETDDPRRYQKYG [OAS1] >= 3
Resp: yes

Req: # bool: protein stability index of ERVVINISGLRFETQLKTLAQFPN [KCNA1] >= 3
Resp: no

Req: # bool: protein stability index of AIALANSDSMHIEDVEAVQKLQDV [ESRRG] >= 3
Resp: yes
